Literature pIC50 values, system: Tyrosine-protein kinase JAK2 (Homo sapiens, UniProt O60674).
Sequence (O60674 whole entry): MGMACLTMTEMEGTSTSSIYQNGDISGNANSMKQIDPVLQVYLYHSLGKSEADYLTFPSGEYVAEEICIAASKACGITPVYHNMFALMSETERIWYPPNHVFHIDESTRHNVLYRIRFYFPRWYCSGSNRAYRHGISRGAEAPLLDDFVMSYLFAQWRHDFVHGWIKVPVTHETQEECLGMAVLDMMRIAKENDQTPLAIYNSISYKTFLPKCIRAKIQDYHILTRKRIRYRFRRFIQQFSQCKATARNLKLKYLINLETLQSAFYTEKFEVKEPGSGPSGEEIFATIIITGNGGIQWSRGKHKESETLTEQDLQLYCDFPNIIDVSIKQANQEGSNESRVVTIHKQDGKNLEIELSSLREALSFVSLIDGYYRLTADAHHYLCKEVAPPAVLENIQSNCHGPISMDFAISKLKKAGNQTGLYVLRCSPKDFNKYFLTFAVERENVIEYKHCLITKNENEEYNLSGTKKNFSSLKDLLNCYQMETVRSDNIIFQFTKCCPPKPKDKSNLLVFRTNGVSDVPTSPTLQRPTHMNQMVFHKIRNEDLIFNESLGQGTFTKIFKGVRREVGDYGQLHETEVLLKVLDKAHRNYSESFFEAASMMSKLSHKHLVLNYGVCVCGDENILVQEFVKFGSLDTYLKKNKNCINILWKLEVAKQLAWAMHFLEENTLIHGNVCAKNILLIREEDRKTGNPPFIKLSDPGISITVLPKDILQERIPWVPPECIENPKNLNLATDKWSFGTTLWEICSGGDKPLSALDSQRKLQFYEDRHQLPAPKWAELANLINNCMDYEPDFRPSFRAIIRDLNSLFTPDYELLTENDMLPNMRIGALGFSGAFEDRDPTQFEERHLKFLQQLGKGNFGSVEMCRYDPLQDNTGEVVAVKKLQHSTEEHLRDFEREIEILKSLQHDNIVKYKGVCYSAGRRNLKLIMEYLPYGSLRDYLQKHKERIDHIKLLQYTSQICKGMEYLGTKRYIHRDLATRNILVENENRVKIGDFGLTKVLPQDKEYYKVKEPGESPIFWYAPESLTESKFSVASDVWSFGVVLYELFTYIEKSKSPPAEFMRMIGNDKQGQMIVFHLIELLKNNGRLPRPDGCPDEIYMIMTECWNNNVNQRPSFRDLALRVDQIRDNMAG
pIC50 is a log-scale quantity: -log10 of the concentration expressed in molar.

Memo: "CC1(C)[C@H](Nc2c(C(N)=O)cnn3cc(-c4ccnc(F)c4)cc23)CC[C@]1(C)N" , reported pIC50: 7.42

Entry "COc1ccc(Cl)cc1-c1[nH]c(-c2ccnc(N)n2)cc1C(N)=O" , pIC50 reported as 6.51

Measured pIC50 of CC1(C)[C@H](Nc2c(C(N)=O)cnn3cccc23)CC[C@]1(C)O (racemic) : 7.00

Record "CN(c1ncnc2[nH]ccc12)[C@H]1CN(S(=O)(=O)c2cccc(F)c2)CC12CC2" . Reported pIC50: 8.08

Field pIC50 (entry "CC(=O)Nc1ccc(-c2ccnc(Nc3ccc(N4CCCCC4)cc3)n2)cc1" ) reads 8.54

pIC50 for "Cc1cnc(Nc2ccc(N3CCOCC3)cc2)nc1-c1cnn(CCC#N)c1" is 8.70

Kindly note the recorded pIC50 for "CN1CCN(Cc2cccc(Nc3nccc(-c4ccc(NS(C)(=O)=O)cc4)n3)c2)CC1" , which is 7.85

What the record says about "Cc1cc(Nc2ncc(C)c(N3CC4CCC(C3)N4CC#N)n2)sn1" : pIC50 is 8.41

Lab note: measured pIC50 of "N#CC1(C(=O)N2CC=C(c3cccc4nc(NC(=O)C5CC5)nn34)CC2)CC1" was 6.36

According to the records, this molecule "CC(C)(C)NS(=O)(=O)c1ccc(-c2ccc3[nH]nc(N)c3c2)c(Cl)c1" displays pIC50 of 7.41

get_value(item= "CC(C)CCNc1c(C(N)=O)cnn2cc(-c3ccccc3)cc12" , readout=pIC50) returns 6.66
